test: Stability in human plasma (HPLC); assay type: in vitro ADME; details: human, human plasma; 1 h, 37° C., 1.4 mg/ml; read-out: TRBP-6 amount remains (%) in human plasma
Numbered stars: 1 amine (or outer) side, 2 acyl side, 3 side chain; on linkers, the order of the positions; unused ones are H or OH. Square brackets hold non-standard residues; d marks the D form. Peptide text beside a SMILES is read from it. N((CH2)3OiPr)Gly = CC(C)OCCCNCC(=O)O; X1 = CC(c1ccccc1)N(CC(=O)[*:2])[*:1]; Nleu = CC(C)CNCC(=O)O; Nlys = NCCCCNCC(=O)O; Nme = COCCNCC(=O)O
quantity measured: remaining at 1 h, 1.4 mg/ml

Ask: What value of measured remaining at 1 h, 1.4 mg/ml is listed for COCCN(CC(=O)NC(CCCCN)C(=O)NC(CCSC)C(N)=O)C(=O)CN(CC(C)C)C(=O)CN(C(=O)CN(CCCCN)C(=O)CN(CCCOC(C)C)C(=O)CNCCCCN)C(C)c1ccccc1 (stereo not shown) [TRBP6] (H-[Nlys][N((CH2)3OiPr)Gly][Nlys][X1][Nleu][Nme]KM-NH2; configuration not given here) ?
Reply: 99.5%

###

Assay: Stability in human plasma (HPLC)
Assay type: in vitro ADME
Conditions: human, human plasma; 3 h, 37° C., 1.4 mg/ml; read-out: TRBP-6 amount remains (%) in human plasma
Method: HPLC Analysis. RP-HPLC was conducted on an LC-20A liquid chromatographic system (Shimadzu, Japan). In detail, the HPLC system consisted of a Shimadzu LC-20AD solvent delivery pump, a SIL-20A auto-sampler, and a Shimadzu SPD-M20A UV/Vis detector. The TRBP-6 peptoid was analyzed using a Phenomenex® HPLC C18 column (250×4.6 mm, 5 μm) at room temperature. […] TRBP-6 peptoid solution with a concentration of 5 mg/ml in PBS was diluted to 1.4 mg/ml by human plasma. […] The supernatant (100 μl) was detected by HPLC. […]
Numbered stars: 1 amine (or outer) side, 2 acyl side, 3 side chain; on linkers, the order of the positions; unused ones are H or OH. Square brackets hold non-standard residues; d marks the D form. Peptide text beside a SMILES is read from it. N((CH2)3OiPr)Gly = CC(C)OCCCNCC(=O)O; X1 = CC(c1ccccc1)N(CC(=O)[*:2])[*:1]; Nleu = CC(C)CNCC(=O)O; Nlys = NCCCCNCC(=O)O; Nme = COCCNCC(=O)O
quantity measured: remaining at 3 h, 1.4 mg/ml (%)
One number for each entry, in %.

Ask: What value of measured remaining at 3 h, 1.4 mg/ml is listed for COCCN(CC(=O)NC(CCCCN)C(=O)NC(CCSC)C(N)=O)C(=O)CN(CC(C)C)C(=O)CN(C(=O)CN(CCCCN)C(=O)CN(CCCOC(C)C)C(=O)CNCCCCN)C(C)c1ccccc1 (stereo not shown) [TRBP6] (H-[Nlys][N((CH2)3OiPr)Gly][Nlys][X1][Nleu][Nme]KM-NH2; configuration not given here) ?
Reply: 94

###

test: Stability in human plasma (HPLC); format: in vitro ADME; settings: human, human plasma; 6 h, 37° C., 1.4 mg/ml; read-out: TRBP-6 amount remains (%) in human plasma
Numbered stars: 1 amine (or outer) side, 2 acyl side, 3 side chain; on linkers, the order of the positions; unused ones are H or OH. Square brackets hold non-standard residues; d marks the D form. Peptide text beside a SMILES is read from it. N((CH2)3OiPr)Gly = CC(C)OCCCNCC(=O)O; X1 = CC(c1ccccc1)N(CC(=O)[*:2])[*:1]; Nleu = CC(C)CNCC(=O)O; Nlys = NCCCCNCC(=O)O; Nme = COCCNCC(=O)O
quantity measured: remaining at 6 h, 1.4 mg/ml (%)
One number for each entry, in %.

Ask: What value of measured remaining at 6 h, 1.4 mg/ml is listed for COCCN(CC(=O)NC(CCCCN)C(=O)NC(CCSC)C(N)=O)C(=O)CN(CC(C)C)C(=O)CN(C(=O)CN(CCCCN)C(=O)CN(CCCOC(C)C)C(=O)CNCCCCN)C(C)c1ccccc1 (stereo not shown) [TRBP6] (H-[Nlys][N((CH2)3OiPr)Gly][Nlys][X1][Nleu][Nme]KM-NH2; configuration not given here) ?
Reply: 93
